Measured values drawn from patent US20240043568A1 for this set.

TARGET OF ASSAY: T1, human CD3εγ-Fc heterodimer (human)
T1 construct: also called human CD3 εγ protein; recombinant CD3 εγ protein
T1 chain 1: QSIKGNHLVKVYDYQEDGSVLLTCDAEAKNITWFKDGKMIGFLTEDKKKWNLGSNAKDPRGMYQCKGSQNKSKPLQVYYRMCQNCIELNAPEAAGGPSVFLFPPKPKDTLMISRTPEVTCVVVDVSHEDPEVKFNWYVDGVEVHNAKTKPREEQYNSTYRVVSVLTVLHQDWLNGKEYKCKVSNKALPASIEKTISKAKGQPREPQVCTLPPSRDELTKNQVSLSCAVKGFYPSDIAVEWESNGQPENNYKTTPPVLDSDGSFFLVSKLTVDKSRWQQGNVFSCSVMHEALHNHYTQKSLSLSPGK
T1 chain 2: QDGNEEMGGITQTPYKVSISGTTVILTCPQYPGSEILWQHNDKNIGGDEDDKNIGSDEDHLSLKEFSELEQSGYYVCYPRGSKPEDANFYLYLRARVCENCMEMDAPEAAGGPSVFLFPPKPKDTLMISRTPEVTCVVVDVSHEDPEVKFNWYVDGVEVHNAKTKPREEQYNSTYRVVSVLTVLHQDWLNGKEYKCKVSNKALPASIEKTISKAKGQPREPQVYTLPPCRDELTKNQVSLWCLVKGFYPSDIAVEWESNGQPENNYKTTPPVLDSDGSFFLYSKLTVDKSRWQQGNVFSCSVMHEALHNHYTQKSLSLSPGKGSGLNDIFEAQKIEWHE
EXPERIMENT DESCRIPTION: ELISA, coated human CD3εγ protein
// reported EC50 for each item listed
Field: numeric (nM). Do not append units.

# lookup: EC50 of aCD3-hVH8/VL1 (antibody, V domains shown, Human IgG4, lambda) VH: EVQLVESGGGLVQPGGSLRLSCAASGFTFNTYAMNWVRKAPGKGLEWVGRIRSKYNNYATYYADSVKDRFTISRDDSKNSLYLQMNSLKTEDTAVYYCARHGNFGNSYVSWFAYWGQGTLVTVSS VL: QAVVTQEPSLTVSPGGTVTLTCRSSTGAVTTSNYANWVQQKPGQAPRGLIGGTNKRAPWTPARFSGSLLGGKAALTLSGAQPEDEAEYYCALWYSNLWVFGGGTKLTVL
0.65

# lookup: EC50 of aCD3-hVH9/VL1 (antibody, V domains shown, Human IgG4, lambda) VH: EVQLVESGGGLVQPGGSLRLSCAASGFTFNTYAMNWVRKAPGKGLEWVGRIRSKYNNYATYYADSVKDRFTISRDDSKNSLYLQMNSLKTEDTAVYYCVRHGNFGNSYVSWFAYWGQGTLVTVSS VL: QAVVTQEPSLTVSPGGTVTLTCRSSTGAVTTSNYANWVQQKPGQAPRGLIGGTNKRAPWTPARFSGSLLGGKAALTLSGAQPEDEAEYYCALWYSNLWVFGGGTKLTVL
0.49

# lookup: EC50 of aCD3-hVH9/VL5 (antibody, V domains shown, Human IgG4, lambda) VH: EVQLVESGGGLVQPGGSLRLSCAASGFTFNTYAMNWVRKAPGKGLEWVGRIRSKYNNYATYYADSVKDRFTISRDDSKNSLYLQMNSLKTEDTAVYYCVRHGNFGNSYVSWFAYWGQGTLVTVSS VL: QAVVTQEPSLTVSPGGTVTLTCRSSTGAVTTSNYANWVQEKPGQAPRGLIGGTNKRAPWTPARFSGSLLGGKAALTITGAQAEDEAEYYCVLWYSNLWVFGGGTKLTVL
0.42

# lookup: EC50 of aCD3-hVH8/VL5 (antibody, V domains shown, Human IgG4, lambda) VH: EVQLVESGGGLVQPGGSLRLSCAASGFTFNTYAMNWVRKAPGKGLEWVGRIRSKYNNYATYYADSVKDRFTISRDDSKNSLYLQMNSLKTEDTAVYYCARHGNFGNSYVSWFAYWGQGTLVTVSS VL: QAVVTQEPSLTVSPGGTVTLTCRSSTGAVTTSNYANWVQEKPGQAPRGLIGGTNKRAPWTPARFSGSLLGGKAALTITGAQAEDEAEYYCVLWYSNLWVFGGGTKLTVL
0.74
